Quick record of IC50 values for Influenza PB2 (Influenza A virus, UniProt P03428).

| compound | IC50 |
| --- | --- |
| CCOC(=O)[C@H]1C2CCC(CC2)[C@@H]1n1cc(Cl)c2cnc(-c3c[nH]c4ncc(F)cc34)nc21 [Compound B126] | > 100 µM |
| O=C(O)C1=C(n2cc(F)c3cnc(-c4c[nH]c5ncc(Cl)cc45)nc32)CCCC1 [Compound B103] | < 1 µM |
| CC(=O)NCCn1cc(-c2c[nH]c3ncc(F)cc23)c2cncnc21 [Compound C12] | > 100 µM |
| CCOC(=O)[C@H]1C2CCC(CC2)[C@@H]1n1cc(C#CCCSC)c2cnc(-c3c[nH]c4ncc(F)cc34)nc21 [Compound B185] | > 100 µM |

## Input Form field: IC50 recorded for CCOC(=O)[C@@H]1C2CCC(CC2)[C@H]1n1cc(-c2cccnc2)c2cnc(-c3c[nH]c4ncc(F)cc34)nc21 [Compound B181] with Influenza PB2 (Influenza A virus, UniProt P03428) (enter value)
## Output 1 to 10 µM

## Input Form field: IC50 recorded for N#Cc1cnc2[nH]cc(-c3ncc4c(F)cn([C@@H]5C6CCC(CC6)[C@H]5C(=O)O)c4n3)c2c1 [Compound B214] with Influenza PB2 (Influenza A virus, UniProt P03428) (enter value)
## Output 1 to 10 µM

## Input Form field: IC50 recorded for O=C(Cn1ccc2c(-c3c[nH]c4ncc(F)cc34)ncnc21)N[C@@H](Cc1ccccc1)C(=O)O [Compound A11] with Influenza PB2 (Influenza A virus, UniProt P03428) (enter value)
## Output 10 to 100 µM

###

Quick record of IC50 values for Influenza PB2 (Influenza A virus, UniProt P03428).

Example entries begin here.
| smiles.code | IC50 |
| --- | --- |
| O=C(O)[C@H]1C2CCC(CC2)[C@@H]1n1cc(Cl)c2cnc(-c3c[nH]c4ncc(Cl)cc34)nc21 | 1 to 10 µM |
| O=C(N[C@H]1CCC[C@@H](n2cc(F)c3cnc(-c4c[nH]c5ncc(Cl)cc45)nc32)C1)c1ccccn1 | > 100 µM |
| C[C@@]1(C(=O)O)CCCC[C@H]1n1cc(C(F)(F)F)c2cnc(-c3c[nH]c4ncc(F)cc34)nc21 | < 1 µM |

The record that follows has no IC50 shown yet.
## Input Returns the measured IC50 for the input molecule. Input: CCOC(=O)[C@H]1C2CCC(CC2)[C@@H]1n1ccc2cnc(-c3c[nH]c4ncc(Cl)cc34)nc21
## Output 10 to 100 µM

###

Form field: IC50 (one value per entry).
- subject.of.test: Influenza PB2 (Influenza A virus)
- Sequence (P03428 whole entry, looked up): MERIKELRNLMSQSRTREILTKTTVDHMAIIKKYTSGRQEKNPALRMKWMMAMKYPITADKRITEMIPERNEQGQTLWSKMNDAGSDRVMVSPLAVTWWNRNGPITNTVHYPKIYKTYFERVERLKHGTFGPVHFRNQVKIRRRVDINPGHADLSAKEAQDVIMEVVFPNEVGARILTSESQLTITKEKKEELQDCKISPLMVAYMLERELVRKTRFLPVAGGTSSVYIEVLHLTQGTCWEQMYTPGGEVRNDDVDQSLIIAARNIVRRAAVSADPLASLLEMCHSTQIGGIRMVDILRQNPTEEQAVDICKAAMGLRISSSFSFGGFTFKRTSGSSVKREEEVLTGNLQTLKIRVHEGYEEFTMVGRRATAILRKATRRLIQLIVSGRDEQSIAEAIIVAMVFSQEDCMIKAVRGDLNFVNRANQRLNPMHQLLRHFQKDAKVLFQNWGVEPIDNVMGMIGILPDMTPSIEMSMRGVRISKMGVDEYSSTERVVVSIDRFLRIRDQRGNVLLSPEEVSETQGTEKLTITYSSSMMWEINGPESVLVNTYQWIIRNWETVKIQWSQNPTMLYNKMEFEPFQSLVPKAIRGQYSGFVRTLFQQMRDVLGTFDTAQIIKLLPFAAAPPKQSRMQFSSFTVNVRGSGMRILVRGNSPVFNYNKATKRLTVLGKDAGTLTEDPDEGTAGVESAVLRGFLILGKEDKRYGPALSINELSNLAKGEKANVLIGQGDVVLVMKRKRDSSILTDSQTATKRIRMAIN

Example entries begin here.
| molecule | recorded.value |
| --- | --- |
| CNC(=O)N[C@H]1CC[C@H](n2ccc3cnc(-c4c[nH]c5ncc(F)cc45)nc32)CC1 [Compound B79] | > 100 µM |
| O=C(O)[C@@H]1C2CCC(CC2)[C@H]1n1cc(F)c2cnc(-c3c[nH]c4ncc(C(F)(F)F)cc34)nc21 [Compound B216] | 1 to 10 µM |

## Input Form field: IC50 recorded for CCC(C)(C(=O)NCC(F)(F)F)n1ccc2cnc(-c3c[nH]c4ncccc34)nc21 (stereo not drawn) [Compound B97] with Influenza PB2 (Influenza A virus) (enter value)
## Output > 100 µM

###

- subject.of.test: Influenza PB2 (Influenza A virus)
readout.name: IC50

Example entries begin here.
| compound | recorded.value |
| --- | --- |
| CNC(=O)C1=C(n2cc(F)c3cnc(-c4c[nH]c5ncc(Cl)cc45)nc32)C2CCC1CC2 | 1 to 10 µM |
| O=C(O)[C@@H]1C2CCC(CC2)C1n1cc(F)c2cnc(-c3c[nH]c4ncc(Cl)cc34)nc21 (single isomer, unassigned) [Compound B143] | < 1 µM |

## Input Form field: IC50 recorded for CCOC(=O)[C@@H]1C2CCC(CC2)[C@H]1n1cc(-c2ccsc2)c2cnc(-c3c[nH]c4ncc(F)cc34)nc21 with Influenza PB2 (Influenza A virus) (enter value)
## Output 10 to 100 µM

###

Quick record of IC50 values for Influenza PB2 (Influenza A virus).

Example entries begin here.
| molecule | subject.of.test | IC50 |
| --- | --- | --- |
| C[C@@]1(C(=O)O)CCCC[C@H]1n1cc(Cl)c2cnc(-c3c[nH]c4ncc(F)cc34)nc21 | Influenza PB2 (Influenza A virus) | < 1 µM |
| O=C(O)[C@@H]1C2CCC(CC2)C1n1cc(Cl)c2cnc(-c3c[nH]c4ncc(F)cc34)nc21 (some centres unmarked) | Influenza PB2 (Influenza A virus) | < 1 µM |
| CCOC(=O)[C@@H]1C2CCC(CC2)[C@H]1n1cc(CCCCSC)c2cnc(-c3c[nH]c4ncc(F)cc34)nc21 | Influenza PB2 (Influenza A virus) | > 100 µM |
| O=C(O)CCN1CCc2cnc(-c3c[nH]c4ncc(F)cc34)nc21 | Influenza PB2 (Influenza A virus) | 10 to 100 µM |
| CNC(=O)n1cc(-c2ncc3c(F)cn(CC4CCCCN4)c3n2)c2cc(F)cnc21 (centres unmarked) | Influenza PB2 (Influenza A virus) | 10 to 100 µM |

## Input Returns the measured IC50 for the input molecule. Input: CNC(=O)Cn1cc(-c2c[nH]c3ncc(F)cc23)c2cncnc21
## Output 10 to 100 µM

## Input Returns the measured IC50 for the input molecule. Input: O=CC1=C(n2cc(F)c3cnc(-c4c[nH]c5ncc(Cl)cc45)nc32)C2CCC1CC2
## Output 1 to 10 µM

## Input Returns the measured IC50 for the input molecule. Input: CCCCCOCCCCCNC(=O)N[C@H]1CCC[C@@H](n2ccc3cnc(-c4c[nH]c5ncc(F)cc45)nc32)C1
## Output > 100 µM

###

Quick record of IC50 values for Influenza PB2 (Influenza A virus, UniProt P03428).

| compound | readout.name | recorded.value |
| --- | --- | --- |
| O=C(O)C1=C(N2CCc3cnc(-c4c[nH]c5ncc(F)cc45)nc32)CCCC1 [Compound B53] | IC50 | 1 to 10 µM |
| CNC(=O)N1CCCCC1Cn1cc(F)c2cnc(-c3c[nH]c4ncc(F)cc34)nc21 (centres unmarked) [Compound B85] | IC50 | 1 to 10 µM |
| CN(C)C(=O)NCCn1cc(-c2c[nH]c3ncc(F)cc23)c2cncnc21 [Compound C16] | IC50 | > 100 µM |
| O=C(O)[C@@H]1C2CCC(CC2)[C@H]1n1cc(-c2ccncc2Cl)c2cnc(-c3c[nH]c4ncc(Cl)cc34)nc21 (relative stereo) [Compound B212] | IC50 | 1 to 10 µM |
| CCCCCOCCOCC(=O)N[C@@H]1CCC[C@H](n2ccc3cnc(-c4c[nH]c5ncc(F)cc45)nc32)C1 [Compound B39] | IC50 | 10 to 100 µM |
| CNC(=O)CCn1cc(-c2c[nH]c3ncc(F)cc23)c2cncnc21 [Compound C11] | IC50 | > 100 µM |

The record that follows has no IC50 shown yet.
## Input Returns the measured IC50 for the input compound. Input: N#CCCCCc1cn([C@@H]2C3CCC(CC3)[C@H]2C(=O)O)c2nc(-c3c[nH]c4ncc(F)cc34)ncc12 [Compound B193]
## Output < 1 µM

###

Quick record of IC50 values for Influenza PB2 (Influenza A virus).

Example entries begin here.
| smiles.code | subject.of.test | IC50 |
| --- | --- | --- |
| CN(C)C(=O)N[C@H]1CCC[C@H](n2ccc3cnc(-c4c[nH]c5ncc(F)cc45)nc32)C1 | Influenza PB2 (Influenza A virus) | 10 to 100 µM |
| CN(C)C(=O)c1cn([C@@H]2C3CCC(CC3)[C@H]2C(=O)O)c2nc(-c3c[nH]c4ncc(Cl)cc34)ncc12 | Influenza PB2 (Influenza A virus) | < 1 µM |
| COC(=O)CNC(=O)CCn1ccc2c(-c3c[nH]c4ncc(F)cc34)ncnc21 | Influenza PB2 (Influenza A virus) | > 100 µM |
| O=C(O)C1=C(n2cc(F)c3cnc(-c4c[nH]c5ncc(Cl)cc45)nc32)C2CCC1CC2 | Influenza PB2 (Influenza A virus) | < 1 µM |
| CCOCCOCCCCCN(C)C(=O)N[C@@H]1CCC[C@H](n2ccc3cnc(-c4c[nH]c5ncc(F)cc45)nc32)C1 | Influenza PB2 (Influenza A virus) | 10 to 100 µM |

## Input Form field: IC50 recorded for O=C(O)[C@@H]1C2CCC(CC2)[C@H]1n1cc(-c2ccn[nH]2)c2cnc(-c3c[nH]c4ncc(F)cc34)nc21 with Influenza PB2 (Influenza A virus) (enter value)
## Output < 1 µM

## Input Form field: IC50 recorded for O=C(Cn1ccc2c(-c3c[nH]c4ncc(F)cc34)ncnc21)N[C@@H](CO)C(=O)O with Influenza PB2 (Influenza A virus) (enter value)
## Output 1 to 10 µM
